Listing: pIC50 of selected compounds
System: C6
Assay: Cytotoxicity against rat C6 cells assessed as reduction in cell viability after 24 hrs by MTT assay
Assay type: cell-based
Settings: C6, 24 h
Just the number, please; pIC50 means minus log10 of the concentration in mol/L.

Example entries and their recorded answers appear below.
Chemical Structure | Observed
CN(c1ccccc1)c1ccccc1C(=O)NCCc1c[nH]c2ccccc12 | 4.54
Cc1ccc2[nH]cc(CCNC(=O)c3ccccc3Nc3cccc(Cl)c3C)c2c1 | 4.18
Cc1ccc2[nH]cc(CCNC(=O)c3ccccc3Nc3ccccc3)c2c1 | 4.06

[Q] Could you share which pIC50 value was measured for Cc1cccc(Nc2ccccc2C(=O)NCCc2c[nH]c3ccccc23)c1C ?
[A] 4.02

[Q] Could you share which pIC50 value was measured for O=C(NCCc1c[nH]c2ccccc12)c1ccccc1Nc1ccccc1 ?
[A] 3.94

###

List of IC50 tested on Prostaglandin G/H synthase 1 (Homo sapiens) (UniProt P23219).
State just the number; it will be interpreted in µM.

Chemical Structure | Target Or Test System | Observed
O=C(NCCc1c[nH]c2ccccc12)c1ccccc1Nc1ccccc1 | Prostaglandin G/H synthase 1 (Homo sapiens) (UniProt P23219) | 0.47

[Q] Which IC50 is reported with Prostaglandin G/H synthase 1 (Homo sapiens) (UniProt P23219) for this entry: O=C(NCCc1c[nH]c2ccccc12)c1cc2ccccc2cc1O ?
[A] 39.2

###

List of IC50 tested on Prostaglandin G/H synthase 2 (Homo sapiens) (UniProt P35354).
Sequence (P35354 whole entry, looked up): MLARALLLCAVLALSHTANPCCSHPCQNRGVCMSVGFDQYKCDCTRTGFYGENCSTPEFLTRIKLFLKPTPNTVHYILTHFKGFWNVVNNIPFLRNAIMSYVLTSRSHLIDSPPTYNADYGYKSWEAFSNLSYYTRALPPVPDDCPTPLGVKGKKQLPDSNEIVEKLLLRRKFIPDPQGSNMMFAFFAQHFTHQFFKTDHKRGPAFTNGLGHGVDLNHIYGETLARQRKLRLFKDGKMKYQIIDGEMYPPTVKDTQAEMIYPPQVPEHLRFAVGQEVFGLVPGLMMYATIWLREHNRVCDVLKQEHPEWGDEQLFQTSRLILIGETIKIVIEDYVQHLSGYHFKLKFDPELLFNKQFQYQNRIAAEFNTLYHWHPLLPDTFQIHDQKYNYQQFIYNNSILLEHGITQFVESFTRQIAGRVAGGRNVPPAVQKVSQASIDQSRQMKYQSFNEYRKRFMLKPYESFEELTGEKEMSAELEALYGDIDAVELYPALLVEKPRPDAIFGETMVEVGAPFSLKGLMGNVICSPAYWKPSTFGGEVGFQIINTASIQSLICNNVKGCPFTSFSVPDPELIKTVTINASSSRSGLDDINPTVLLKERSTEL
State just the number; it will be interpreted in µM.

Example entries and their recorded answers appear below.
Chemical Structure | Observed
Cc1cccc(Nc2ccccc2C(=O)NCCc2c[nH]c3ccccc23)c1C | 2.31
CN(C)c1ccccc1C(=O)NCCc1c[nH]c2ccc(O)cc12 | 0.57

Consider the additional compound presented here.
[Q] Which IC50 is reported with Prostaglandin G/H synthase 2 (Homo sapiens) (UniProt P35354) for this entry: Cc1ccc(C(=O)NCCc2c[nH]c3ccccc23)c(O)c1 ?
[A] 4.16

###

List of IC50 tested on Prostaglandin G/H synthase 2 (Homo sapiens).
State just the number; it will be interpreted in µM.

Example entries and their recorded answers appear below.
Chemical Structure | Value Unit | Observed
O=C(NCCc1c[nH]c2ccc(O)cc12)c1ccccc1Nc1ccccc1 | µM | 0.5
O=C(NCCc1c[nH]c2ccccc12)c1cc(Cl)ccc1O | µM | 10.4

[Q] Could you share which IC50 value was measured for O=C(NCCc1c[nH]c2ccc(Cl)cc12)c1ccccc1Nc1ccccc1 ?
[A] 0.58

###

Molecular target: Prostaglandin G/H synthase 1 (Homo sapiens) (UniProt P23219)
Listing: IC50 of selected molecules
State just the number; it will be interpreted in µM.

Example entries and their recorded answers appear below.
Chemical Structure | IC50 / µM
O=C(NCCc1c[nH]c2ccc(O)cc12)c1ccccc1Nc1ccccc1 | 0.38
Cc1ccc(C(=O)NCCc2c[nH]c3ccccc23)c(O)c1 | 16.4

[Q] Which IC50 is reported with Prostaglandin G/H synthase 1 (Homo sapiens) (UniProt P23219) for this entry: COc1ccc2[nH]cc(CCNC(=O)c3ccccc3Nc3ccccc3)c2c1 ?
[A] 38.6

###

Assay: Toxicity in po dose Kunming mouse after 14 days
Assay type: organism-based
Settings: in vivo, time 14 day
Readout: LD50 at 336 h

Chemical Structure | LD50 at 336 h
Cc1ccc(C(=O)NCCc2c[nH]c3ccccc23)c(O)c1 | > 1000 mg/kg

Consider the additional molecule presented here.
[Q] Could you share which LD50 at 336 h value was measured for O=C(NCCc1c[nH]c2ccc(O)cc12)c1ccccc1Nc1ccccc1 ?
[A] > 1000 mg/kg

###

Listing: pIC50 of selected molecules
Test system: C6
Assay: Cytotoxicity against rat C6 cells assessed as reduction in cell viability after 24 hrs by MTT assay
Format: cell-based
Conditions: C6, 24 h
Just the number, please; pIC50 means minus log10 of the concentration in mol/L.

Chemical Structure | pIC50
Cc1cccc(Nc2ccccc2C(=O)NCCc2c[nH]c3ccc(O)cc23)c1C | 4.09
Cc1c(Cl)cccc1Nc1ccccc1C(=O)NCCc1c[nH]c2ccccc12 | 4.15
COc1ccc2[nH]cc(CCNC(=O)c3ccccc3Nc3cccc(Cl)c3C)c2c1 | 4.20

[Q] Could you share which pIC50 value was measured for O=C(NCCc1c[nH]c2ccc(Cl)cc12)c1ccccc1Nc1ccccc1 ?
[A] 4.10

[Q] Could you share which pIC50 value was measured for COc1ccc2[nH]cc(CCNC(=O)c3ccccc3Nc3ccccc3)c2c1 ?
[A] 4.05

###

Organism: Homo sapiens
Assay: Selectivity index, ratio of IC50 for inhibition of human COX1 to IC50 for inhibition of human COX2
Readout: Ratio IC50
Kindly provide the number alone.

Example entries and their recorded answers appear below.
Chemical Structure | Ratio IC50
O=C(NCCc1c[nH]c2ccccc12)c1ccccc1Nc1ccccc1 | 0.18
O=C(NCCc1c[nH]c2ccc(Cl)cc12)c1ccccc1Nc1ccccc1 | 2.31
O=C(NCCc1c[nH]c2ccc(O)cc12)c1ccccc1Nc1ccccc1 | 0.76
Cc1ccc2[nH]cc(CCNC(=O)c3ccccc3Nc3ccccc3)c2c1 | 18.4
O=C(NCCc1c[nH]c2ccc(O)cc12)c1ccccc1O | 2.18
COc1ccc2[nH]cc(CCNC(=O)c3ccccc3Nc3ccccc3)c2c1 | 14
Cc1ccc(C(=O)NCCc2c[nH]c3ccccc23)c(O)c1 | 3.95

Consider the additional molecule presented here.
[Q] Could you share which Ratio IC50 value was measured for O=C(NCCc1c[nH]c2ccccc12)c1cc2ccccc2cc1O ?
[A] 18

###

Assay: Half life in Sprague-Dawley rat at 50 mg/kg, ip up to 24 hrs by LC-MS analysis
Type: ADME, organism-based
Details: in vivo
Listing: half-life of selected compounds
State just the number; it will be interpreted in h.

Compound | half-life (h)
O=C(NCCc1c[nH]c2ccc(O)cc12)c1ccccc1Nc1ccccc1 | 2.72

[Q] Could you share which half-life value was measured for COc1ccc2[nH]cc(CCNC(C)=O)c2c1 [MELATONIN] ?
[A] 0.54

[Q] Could you share which half-life value was measured for Cc1ccc(C(=O)NCCc2c[nH]c3ccccc23)c(O)c1 ?
[A] 13.9

###

Listing: pIC50 of selected molecules
Target: Prostaglandin G/H synthase 2 (Homo sapiens)
pIC50: −log10 of the molar value.

Example entries and their recorded answers appear below.
Molecule | Observed
CNc1ccccc1C(=O)NCCc1c[nH]c2ccccc12 | < 4.40
O=C(O)c1ccccc1O [SALICYLIC ACID] | < 4.40

[Q] Which pIC50 is reported with Prostaglandin G/H synthase 2 (Homo sapiens) for this entry: COc1ccc2[nH]cc(CCNC(=O)c3ccccc3Nc3cccc(Cl)c3C)c2c1 ?
[A] < 4.40

###

Target: Prostaglandin G/H synthase 1 (Homo sapiens)
pIC50: −log10 of the molar value.
Listing: pIC50 of selected compounds

[Q] Which pIC50 is reported with Prostaglandin G/H synthase 1 (Homo sapiens) for this entry: CNc1ccccc1C(=O)NCCc1c[nH]c2ccccc12 ?
[A] < 4.40

[Q] Which pIC50 is reported with Prostaglandin G/H synthase 1 (Homo sapiens) for this entry: O=C(NCCc1c[nH]c2ccccc12)c1cc(Cl)ccc1O ?
[A] < 4.40

[Q] Which pIC50 is reported with Prostaglandin G/H synthase 1 (Homo sapiens) for this entry: O=C(NCCc1c[nH]c2ccccc12)c1ccc(O)cc1O ?
[A] < 4.40
